Target: MSI1 RRM1 (Homo sapiens, UniProt O43347 1-103)
Sequence (O43347 1-103): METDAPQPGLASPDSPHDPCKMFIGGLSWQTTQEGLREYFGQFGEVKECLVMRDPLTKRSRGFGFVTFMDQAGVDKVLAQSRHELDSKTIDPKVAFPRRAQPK
Assay: SPR; 1:1 with mass transport; SPR, 3'-biotinylated RNA immobilized on dextran sensor chip, protein as analyte; running buffer, salt, pH and temperature not in the material
Conditions: protein: recombinant; tags: N-terminal Strep-tag; label: 3'-biotin; linear
outcomeMeasure: pKd
// returns pKd (minus log10 of molar concentration), number only

Inquiry: I would be grateful if you could share the reported pKd for UUGUCAGUUACCCCUU (ssRNA) [RNA-L1a] .
Reply text: 6.82
